Origin of measurements: patent US20050282743A1

# assay.system: T1, GST-MUPP1 PDZ domain 13 (Homo sapiens (Human)), O75970
# T1 chain: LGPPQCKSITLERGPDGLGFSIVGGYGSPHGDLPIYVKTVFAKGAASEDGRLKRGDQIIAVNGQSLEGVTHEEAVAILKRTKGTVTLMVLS
# assay.info: G' assay; note: key of the grades not given here
test.readout: Classification (A450 class)
API: value field is a number in A450 class; no unit string.

Completed entries (count: 7):
INSERT INTO measurements (binder, unit_spec, reported_result) VALUES
  ('HDFRRAFKKILARGDRKRIV (modifications not checked) [alpha-2A Adrenergic receptor]', 'A450 class', 1),
  ('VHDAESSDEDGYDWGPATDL (modifications not checked) [zona occludens 3 (ZO-3) PL peptide]', 'A450 class', 2),
  ('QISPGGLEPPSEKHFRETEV (modifications not checked) [TAX]', 'A450 class', 5),
  ('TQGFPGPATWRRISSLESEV (modifications not checked) [NMDA Glutamate Receptor 2C (cysteine-free)]', 'A450 class', 5),
  ('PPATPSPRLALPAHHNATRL (modifications not checked) [Na+/Pi cotransporter 2]', 'A450 class', 1),
  ('DSDPENEPFDEDQHTQITKV (modifications not checked) [PTEN]', 'A450 class', 5),
  ('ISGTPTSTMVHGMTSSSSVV (modifications not checked) [Clasp-2]', 'A450 class', 1);

Read the next record carefully.
What measured Classification goes with ARHRVTSYTSSSVNVSSNL (modifications not checked) [IL-8RA] ?
1
